tested on: A498 renal; assay: NCI-60 one-dose screen, 48 h (100 = growth as untreated, 0 = no growth, -100 = all killed); conditions: 10 µM unless noted
Compounds without any hit were thinned out: in the full panel of roughly 83,000, 20% have a hit.
EXPERIMENTAL_ENDPOINT: growth (%)
Give just the numeric value; % need not be written.

Consider the molecule C#CCOc1ccc(-c2csc(NC(=O)C=C)n2)cc1NS(=O)(=O)c1cccc2c(N(C)C)cccc12 and give its recorded growth.
79.8

Give growth for the following molecule: CN1CCN(c2ccc(C(=O)/C=C/c3cc(F)cc(C(F)(F)F)c3)cc2)CC1
96.9

Provide measured growth value, entry: CC(=C(c1ccc(OCCN2CCCC2)cc1)c1ccc(OCCN2CCCC2)cc1)c1ccc(Cl)cc1
86.5

Name the recorded growth of the molecule listed here: Brc1cc(-c2cc(-c3ccc4c(c3)OCCO4)[nH]n2)cs1
48.6

Recall and state the measured growth for Cc1ccccc1Nc1nc(SC(C)C)nc(-c2ccccc2)c1C#N .
53.5
